ASSAY_DETAILS: yeast display, Sf9 membrane polyspecificity reagent, FACS + sequencing; frameworks hold sequencing errors
MEASURE: polyreactivity (PSR sort gate)

QVQLVESGGGLVQAGGSLRLSCAASGFTSPIYAMGWYRQAPGKERELVAVIDWSSGITYYADSVKGRFTISRDNAKNTVYLQMNSLKPEDTAVYYCAAEYRGRGWRYGYDYWGQGTQVTVSS
high polyreactivity
QVQLVESGGGLVQAGGSLRLSCAASGYTFSQNAMGWYRPAPGKERELVAGITTRGTTTYYADSVKGRFTISRDNAKNTVYLQMNSLKPEDTAVYYCAADNSYTDNYWGQGTQVTVSS
low polyreactivity
QVQLVESGGGLVQAGGSLRLSCAASGRTFSVYAMVWYRQAPGKERELVADITRRGGSTTYADSVKGRFTISRDNAKNTVDLQMNSLKPEDTAVYYFNADGKAGGDYDYWGQGTQVTVSS
low polyreactivity
QVQLQESDGGLVQAGGSLRLTCAASGSISPQYYMGWYRQAPGKEREFVAISKGTTTYYADSVKGRLTISRVNANNTVYLQMNSLKPEDTAVYCCAAGRWLQKVHAYWDQGTQVTVSS
low polyreactivity
QVQLVESGGGLVQAGGSLRLSCAASGSTFRSNAMGWYRQAPGKERELVAAISRRGGSTYYADSVKGRFTISRDNAKNTVDLQMNSLKPEDTAVYYCAKGYIGFPISSFLYDYWGQGTQVTVSS
high polyreactivity
